measurement.protocol: VP16 transactivation reporter inhibitors, counter-screen for LRH-1 inverse agonist project, cell-based, luminescence, high throughput (AID 651615)
measurement.parameters: Gal4-VP16 luciferase reporter cells, at 3.6 µM
Calls of active or inactive are those of the source. Cut-off read from the data, not from the text of the source: active = inhibition above about 33%; inactive = the rest.
Use one of these outcomes when replying: 1 for active, -1 for inactive

// param item: O=C(Nc1cc(C(F)(F)F)cc(C(F)(F)F)c1)O[C@@H]1c2ccccc2[C@@H]2Cc3csc[n+]3[C@H]12 ; yields the recorded call
-1

Please do the same for COc1ccc(NC(=O)COC(=O)c2c(-c3ccccc3)noc2C)cc1 as well.
-1

Please do the same for CC(C)(C)C(=O)Nc1cc2nn(-c3ccccc3)nc2cc1Cl as well.
1

Please do the same for CC(=O)Nc1cc(-c2ccc(S(C)(=O)=O)cc2)cn2c(-c3ccc(F)cc3)cnc12 as well.
-1

Please do the same for O=C(CCCc1ccccc1)c1ccc2c(c1)OCCO2 as well.
-1

* * *

Test system: transactivating tegument protein VP16 (Human herpesvirus 1)
measurement.protocol: VP16 transactivation reporter inhibitors, counter-screen for SRC2 inhibitor project, cell-based, luminescence, single concentration (AID 652007)
measurement.parameters: cell-based VP16 transactivation luciferase reporter, at 8.9 µM
Active and inactive are the calls of the source. Rule as the data show it: active = inhibition above about 36%; inactive = the rest.
Use one of these outcomes when replying: Yes for active, No for inactive

The examples below pair each entry with its known result.
| record.smiles | label.class |
| --- | --- |
| O=C(NN=Cc1c(O)ccc2ccccc12)c1ccncc1 | No |
| CCc1ccc(/C=C2\SC(=S)N(CCCC(=O)Nc3cc(C)on3)C2=O)cc1 | No |
| COc1ccc(CCNC(=S)N2CCC(C(=O)c3ccc(F)cc3)CC2)cc1OC | No |
| O=C(COC(=O)c1ccc(Br)o1)NCC(=O)Nc1ccc(F)cc1 | No |
| COc1cc(/C=C/C(=O)Nc2ccc(OC)c(S(=O)(=O)N3CCOCC3)c2)ccc1OC(F)F | No |
| COC1=CC(=O)c2c(ccc3ncnc(N)c23)C1=O | Yes |
| C=C1CC2(OC1=O)c1ccccc1CCc1ccccc12 | Yes |
| O=S(=O)(c1ccc(F)cc1)c1snnc1-c1ccccc1 | No |
| COc1cc(N(C(C)=O)c2ccc(O)cc2)c2ncccc2c1 | No |
| Cc1ccc(NC(=O)C2CCN(S(=O)(=O)c3cc([N+](=O)[O-])ccc3Cl)CC2)nc1 | No |

// param item: COc1cccc(-c2nnc3n2N=C(C(C)(C)C)CS3)c1 ; yields the recorded call
No

Please do the same for COc1ccc(S(=O)(=O)N2CCC(C(=O)c3ccc4c(c3)OCCO4)CC2)cc1 as well.
No

Please do the same for COc1cccc(NC(=O)Nc2nnc(CC(=O)Nc3ccccc3)s2)c1 as well.
No

Please do the same for COc1ccc2nc(C)cc(Sc3nc4ccccc4s3)c2c1 as well.
No

Please do the same for CCCCCc1c(C)nc(N2CCc3ccccc32)[nH]c1=O as well.
No

Please do the same for COc1ccc(/C=C2/SC(=S)N(CCC(=O)O)C2=O)cc1 as well.
No

Please do the same for Cc1ccc(-n2c(C)cc(C(=O)COc3cccnc3[N+](=O)[O-])c2C)cc1 as well.
No

* * *

Reported values of activation for individual entries
target.or.test.system: Oxysterols receptor LXR-beta (Homo sapiens)
measurement.protocol: LXR agonists, Gal4 luciferase reporter, confirmation, counter-screen for hgDAF-12 agonist project, cell-based, luminescence, HEK293, H. glycines campaign (AID 743051)
measurement.parameters: 24 h, at 6.8 µM, hits give high values
Some of the results follow.
Report only the number, with the unit % understood.

Sample O=c1oc(/C=C/c2ccccc2)nc2ccccc12 — what was its activation?
0.58

* * *

target.or.test.system: Nuclear receptor coactivator 3 (Homo sapiens) (UniProt Q9Y6Q9)
Sequence (Q9Y6Q9 whole entry, looked up): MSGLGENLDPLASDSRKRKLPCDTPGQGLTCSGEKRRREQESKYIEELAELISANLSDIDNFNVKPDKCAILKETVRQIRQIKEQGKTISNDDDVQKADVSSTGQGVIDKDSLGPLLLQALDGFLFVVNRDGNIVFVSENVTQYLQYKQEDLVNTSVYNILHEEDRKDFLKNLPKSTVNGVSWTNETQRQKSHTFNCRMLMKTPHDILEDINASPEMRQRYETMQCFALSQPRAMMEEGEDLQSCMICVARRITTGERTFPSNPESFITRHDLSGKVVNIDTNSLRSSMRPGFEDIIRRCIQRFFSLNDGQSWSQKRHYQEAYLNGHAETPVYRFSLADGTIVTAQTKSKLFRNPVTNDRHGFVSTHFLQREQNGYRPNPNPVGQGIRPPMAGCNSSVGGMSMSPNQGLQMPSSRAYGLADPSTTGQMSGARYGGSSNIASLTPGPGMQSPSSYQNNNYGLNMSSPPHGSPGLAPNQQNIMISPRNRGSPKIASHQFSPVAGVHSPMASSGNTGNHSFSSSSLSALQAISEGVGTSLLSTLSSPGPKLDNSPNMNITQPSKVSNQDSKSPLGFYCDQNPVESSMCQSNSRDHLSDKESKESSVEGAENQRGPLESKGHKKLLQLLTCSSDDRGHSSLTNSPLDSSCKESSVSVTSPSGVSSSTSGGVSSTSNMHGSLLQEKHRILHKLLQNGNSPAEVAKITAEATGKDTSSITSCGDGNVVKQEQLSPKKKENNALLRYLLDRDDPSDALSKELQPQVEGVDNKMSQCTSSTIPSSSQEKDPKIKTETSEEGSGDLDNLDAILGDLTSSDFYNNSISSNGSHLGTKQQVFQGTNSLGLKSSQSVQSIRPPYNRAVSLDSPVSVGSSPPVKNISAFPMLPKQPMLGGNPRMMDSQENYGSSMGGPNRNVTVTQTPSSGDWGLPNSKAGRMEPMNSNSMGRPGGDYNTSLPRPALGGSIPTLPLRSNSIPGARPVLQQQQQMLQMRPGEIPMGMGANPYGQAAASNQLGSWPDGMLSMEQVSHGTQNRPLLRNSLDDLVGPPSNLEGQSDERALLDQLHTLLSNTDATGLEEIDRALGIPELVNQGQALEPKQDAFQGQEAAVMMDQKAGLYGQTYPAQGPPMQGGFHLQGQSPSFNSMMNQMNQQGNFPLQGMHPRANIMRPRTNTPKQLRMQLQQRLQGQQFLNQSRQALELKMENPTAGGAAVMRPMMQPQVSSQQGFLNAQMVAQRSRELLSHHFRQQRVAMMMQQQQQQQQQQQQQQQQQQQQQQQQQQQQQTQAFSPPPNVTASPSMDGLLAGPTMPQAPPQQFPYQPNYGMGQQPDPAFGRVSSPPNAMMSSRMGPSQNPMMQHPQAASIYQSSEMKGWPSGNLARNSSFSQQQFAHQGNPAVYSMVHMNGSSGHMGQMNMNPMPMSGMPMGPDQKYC
measurement.protocol: SRC3 coactivator transcriptional activity inhibitors, confirmation, cell-based, luminescence, quadruplicate (AID 588792);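 note: 0% = DMSO treated cells and 100% = gossypol at 36 µM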
measurement.parameters: HEK293 GAL4-SRC3 luciferase reporter, at 3.6 µM
Active and inactive are the calls of the source.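 The calls were made as follows: active = mean inhibition over 43.08%, the solvent-only control mean plus 3 SD; inactive = the rest.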
Use one of these outcomes when replying: active, inactive

| compound | target.or.test.system | label.class |
| --- | --- | --- |
| COc1ccc(CCNc2ncnc3c2oc2ccccc23)cc1OC | Nuclear receptor coactivator 3 (Homo sapiens) (UniProt Q9Y6Q9) | inactive |
| c1ccc(CNc2c3ccccc3nc3ccccc23)cc1 | Nuclear receptor coactivator 3 (Homo sapiens) (UniProt Q9Y6Q9) | inactive |
| O=C(CCSc1ccc(Cl)cc1)N1CCN(c2ccc(O)cc2)CC1 | Nuclear receptor coactivator 3 (Homo sapiens) (UniProt Q9Y6Q9) | inactive |
| c1ccc(CCc2nn3c(-c4ccncc4)nnc3s2)cc1 | Nuclear receptor coactivator 3 (Homo sapiens) (UniProt Q9Y6Q9) | active |
| S=C(c1ccc(-c2ccccc2)cc1)N1CCOCC1 | Nuclear receptor coactivator 3 (Homo sapiens) (UniProt Q9Y6Q9) | inactive |
| Cc1nnc(SC(=O)N2c3ccccc3Sc3ccccc32)s1 | Nuclear receptor coactivator 3 (Homo sapiens) (UniProt Q9Y6Q9) | active |
| COc1ccc(C(=O)Nc2nc(-c3ccccn3)cs2)cc1S(=O)(=O)N1CCOCC1 | Nuclear receptor coactivator 3 (Homo sapiens) (UniProt Q9Y6Q9) | inactive |
| CCOC(=O)c1ccc2nc(Nc3nc4ccc(F)cc4s3)sc2c1 | Nuclear receptor coactivator 3 (Homo sapiens) (UniProt Q9Y6Q9) | inactive |

// param item: Cc1onc(-c2ccccc2)c1C(=O)NC(=S)NNC(=O)c1ccc(O)cc1O ; yields the recorded call
active

Please do the same for CC1=NN(c2nc3ccccc3[nH]2)C(=O)C1Cc1ccccc1 (stereo unspecified) as well.
active

Please do the same for O=C(Nc1cccc(C(F)(F)F)c1)Nc1nnc([C@@H]2C[C@H](O)[C@@H](CO)O2)s1 as well.
active

* * *

measurement.protocol: VP16 transactivation inhibitors, counter-screen for SRC1 inhibitor project, cell-based, luminescence, high throughput (AID 588824)
measurement.parameters: cell-based VP16 transactivation luciferase luminescence; at 3.6 µM
The source made the active and inactive calls. No stated cut-off is given here; in the data, active means inhibition above about 25%; inactive means the rest.
Use one of these outcomes when replying: yes (active), no (inactive)

The examples below pair each entry with its known result.
| compound | label.class |
| --- | --- |
| CC(C)N(C)c1ncnc2c1ncn2[C@H]1CN(Cc2ccncc2)C[C@@H](CO)O1 | no |
| Cc1nn(C(C)(C)C)c(C)c1/C=N/OC(=O)Nc1ccc(Cl)c(Cl)c1 | no |
| COc1cc2c(oc(=O)c3cc(C)cc(OC)c32)c2c(C3OC(C)C(O)C(C)(O)C3O)ccc(O)c12 (stereo not given) | yes |
| CC1CCc2c(sc(NC(=O)CSc3ncn[nH]3)c2C#N)C1 (stereo not given) | yes |
| CCN(CC)c1ccc2nc3ccccc3[n+](CC)c2c1 | yes |

// param item: COc1cccc(/C=N/Nc2ncnc3scc(-c4ccccc4)c23)c1O ; yields the recorded call
yes

* * *

measurement.protocol: VP16 transactivation reporter inhibitors, counter-screen for LRH-1 inverse agonist project, cell-based, luminescence, high throughput (AID 651615)
measurement.parameters: Gal4-VP16 luciferase reporter cells, at 3.6 µM, hits give high values
measurement.kind: inhibition (%)
Report only the number, with the unit % understood.

// known answers, use as guide
| molecule | measurement.kind | quantitative.readout |
| --- | --- | --- |
| Cc1ccc(S(=O)(=O)N(C)C)cc1NC(=O)c1cncc(Br)c1 | inhibition | 19.7 |
| O=C(Nc1cccc2ccccc12)c1ccc([N+](=O)[O-])o1 | inhibition | -3.59 |
| O=C(CCl)Nc1ccc(S(=O)(=O)NC2=NCCCCC2)cc1 | inhibition | 17.7 |
| NC1=C(Br)C(=O)c2ncccc2C1=O | inhibition | 79.3 |
| CCCC(=O)NC(c1ccc(Cl)cc1)c1ccc2cccnc2c1O (stereo unspecified) | inhibition | 74.8 |

The record that follows has no inhibition shown yet.
Sample O=C(c1cc(COc2cccc3cnccc23)on1)N1CCCC(CCCO)C1 (stereo unspecified) — what was its inhibition?
63.5

* * *

Tested on: transactivating tegument protein VP16 (Human herpesvirus 1)
measurement.protocol: VP16 transactivation reporter inhibitors, counter-screen for SRC2 inhibitor project, cell-based, luminescence, single concentration (AID 652007)
measurement.parameters: cell-based VP16 transactivation luciferase reporter, at 8.9 µM, hits give high values
measurement.kind: inhibition (%)
Report only the number, with the unit % understood.

// known answers, use as guide
| record.smiles | target.or.test.system | quantitative.readout |
| --- | --- | --- |
| Cc1ccc(C(=O)/C=C/Nc2ccccn2)cc1 | transactivating tegument protein VP16 (Human herpesvirus 1) | 31.1 |
| COC(=O)Cc1ccc(NC(=O)c2ccccc2Cl)cc1 | transactivating tegument protein VP16 (Human herpesvirus 1) | -35.8 |
| S=C(c1ccc(-c2ccccc2)cc1)N1CCOCC1 | transactivating tegument protein VP16 (Human herpesvirus 1) | 10.2 |
| C=CS(=O)(=O)N(Cc1ccc(C)cc1)[C@@H](CO)C(=O)OC | transactivating tegument protein VP16 (Human herpesvirus 1) | 17.1 |
| COc1ccc(-c2nc(-c3ccccc3)no2)c(OC)c1 | transactivating tegument protein VP16 (Human herpesvirus 1) | 3.43 |

The record that follows has no inhibition shown yet.
Sample Cc1nc2scc(C)n2c(=O)c1S(=O)(=O)Nc1ccc(OC(F)(F)F)cc1 — what was its inhibition?
-5.83
